Origin of measurements: patent US10174013B2

- Test system: MV4-11 xenograft
- test-summary: MV4-11 xenograft in immunocompromised mice
- Assay type: in vivo
- details: MV4-11 xenograft, oral, 150 mg/Kg QD
Structures can show the parent of a compound that is named as a salt.
parameter: ΔBW (body weight change)

{"compound": "CC(C)n1c(N2CCC[C@H](N)C2)nc2c([N+](=O)[O-])c(Br)c(Br)cc21", "study-target": "MV4-11 xenograft", "parameter": "ΔBW (body weight change)", "result": "11.7%"}
{"compound": "CC(C)n1c(N2CCNCC2)nc2c([N+](=O)[O-])c(Br)c(Br)cc21 [Example 2A, hydrochloride]", "study-target": "MV4-11 xenograft", "parameter": "ΔBW (body weight change)", "result": "−4.4%"}
{"compound": "CC(C)Cn1c(N2CCNCC2)nc2c([N+](=O)[O-])c(Br)c(Br)cc21", "study-target": "MV4-11 xenograft", "parameter": "ΔBW (body weight change)", "result": "−6.5%"}
